Reported Ke values, Delta-type opioid receptor (Homo sapiens) (UniProt P41143).
Provide only the numeric value, understood in nM.

1) C[C@]12CCCC[C@@]1(c1cccc(O)c1)CCN(CCCc1ccccc1)C2 (relative stereo) ... 12.4
2) C[C@]12CCCC[C@@]1(c1cccc(O)c1)CCN(CCc1ccccc1)C2 (relative stereo) ... 18.9
3) C[C@]12CC[C@@H](NC(=O)C3(c4ccccc4)CCCC3)C[C@@]1(c1cccc(O)c1)CCN(CCCc1ccccc1)C2 ... 6.46
4) CN1CC[C@]2(c3cccc(O)c3)CCCC[C@]2(C)C1 ... 477

What Ke appears in the records for this molecule with Delta-type opioid receptor (Homo sapiens) (UniProt P41143)? `C[C@H]1CN(CC[C@H](O)C2CCCCC2)CC[C@@]1(C)c1cccc(O)c1`
Sequence (P41143 whole entry): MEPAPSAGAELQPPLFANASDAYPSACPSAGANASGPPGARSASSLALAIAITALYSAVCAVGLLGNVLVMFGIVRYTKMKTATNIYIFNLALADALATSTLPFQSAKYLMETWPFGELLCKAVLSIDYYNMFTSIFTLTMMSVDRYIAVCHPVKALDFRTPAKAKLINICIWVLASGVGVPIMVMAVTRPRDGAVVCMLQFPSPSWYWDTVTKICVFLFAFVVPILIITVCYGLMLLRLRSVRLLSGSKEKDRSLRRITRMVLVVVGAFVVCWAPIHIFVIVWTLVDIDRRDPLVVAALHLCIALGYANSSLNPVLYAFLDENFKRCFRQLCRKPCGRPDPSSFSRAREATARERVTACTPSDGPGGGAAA
0.6
